- System tested: full-length beta-Catenin (Uniprot ID P35222) (Homo sapiens, UniProt P35222)
- Construct: 10 nM full-length beta-Catenin (Uniprot ID P35222)
- Sequence (P35222 1-781): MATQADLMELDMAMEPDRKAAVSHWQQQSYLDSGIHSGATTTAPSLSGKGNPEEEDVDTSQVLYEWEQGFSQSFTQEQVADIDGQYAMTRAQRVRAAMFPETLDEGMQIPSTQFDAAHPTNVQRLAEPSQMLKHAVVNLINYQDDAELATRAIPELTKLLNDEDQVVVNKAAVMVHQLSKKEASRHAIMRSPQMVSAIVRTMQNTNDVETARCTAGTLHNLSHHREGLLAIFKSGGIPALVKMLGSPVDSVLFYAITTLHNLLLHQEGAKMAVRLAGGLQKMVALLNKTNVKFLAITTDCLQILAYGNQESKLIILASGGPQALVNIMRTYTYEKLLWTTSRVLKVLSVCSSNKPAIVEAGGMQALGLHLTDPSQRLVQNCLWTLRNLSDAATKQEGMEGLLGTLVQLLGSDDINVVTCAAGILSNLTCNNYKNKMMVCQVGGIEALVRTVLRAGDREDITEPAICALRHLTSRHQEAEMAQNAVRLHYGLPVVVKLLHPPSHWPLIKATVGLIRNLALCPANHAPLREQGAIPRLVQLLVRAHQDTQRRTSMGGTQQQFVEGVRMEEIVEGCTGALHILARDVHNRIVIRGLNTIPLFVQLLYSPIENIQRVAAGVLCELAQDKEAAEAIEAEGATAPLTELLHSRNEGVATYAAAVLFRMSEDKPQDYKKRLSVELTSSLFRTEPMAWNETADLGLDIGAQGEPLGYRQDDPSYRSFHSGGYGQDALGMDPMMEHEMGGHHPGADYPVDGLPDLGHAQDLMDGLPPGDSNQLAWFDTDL
- Method summary: Fluorescence polarization IC50 (beta-catenin / 5FAM-TCF4 10-53 competition)
- Format: binding
- Measurement parameters: fluorescence polarization; read-out: beta-Catenin FP IC50
Endpoint name: IC50 (nM)
Give the quantity in nM, number only.

Task: Recall and state the measured IC50 for CC(=O)N1CCC[C@]12CC=CCCCC1(CCCC=CCCCOC(=O)N3CC[C@@](C(=O)N[C@@H](Cc4ccsc4)C(=O)N[C@@H](Cc4csc5ccccc45)C(=O)N[C@@H](CCC(N)=O)C(N)=O)(C3)NC(=O)[C@H](CCC(=O)N3CCN(CC(F)(F)F)CC3)NC(=O)[C@H](Cc3ccccc3)NC(=O)[C@H](C)NC(=O)[C@H](C)NC(=O)[C@H](CN(CC(=O)O)CC(F)(F)F)NC(=O)[C@H](CC(=O)O)NC1=O)NC(=O)[C@H](CC(C)(C)C)NC(=O)[C@H](CC(=O)O)NC2=O (stereo partly drawn) [I-1935] .
Output: 9

Task: Recall and state the measured IC50 for CC(=O)N1CCC[C@]12CC=CCCCC1(CCCC=CCCCCCC[C@@](C)(C(=O)N[C@@H](Cc3ccccc3)C(=O)N[C@@H](Cc3csc4ccccc34)C(=O)N[C@@H](CCC(N)=O)C(N)=O)NC(=O)[C@H](CCC(N)=O)NC(=O)[C@H](Cc3ccccc3)NC(=O)[C@H](C)NC(=O)[C@H](C)NC(=O)[C@H](CCC(=O)O)NC(=O)[C@H](CC(=O)O)NC1=O)NC(=O)[C@H](CO)NC(=O)[C@H](CC(=O)O)NC2=O (stereo partly drawn) [I-1526] .
Output: 84

Task: Recall and state the measured IC50 for CC(=O)N1CCC[C@]12CC=CCCCC1(CCCC=CCCOC(=O)N3CC[C@@](C(=O)N[C@@H](Cc4ccsc4)C(=O)N[C@@H](Cc4csc5ccccc45)C(=O)N[C@@H](CCC(N)=O)C(N)=O)(C3)NC(=O)[C@H](CC(N)=O)NC(=O)[C@H](Cc3ccccc3)NC(=O)[C@H](C)NC(=O)[C@H](C)NC(=O)[C@H]([C@@H](C)O)NC(=O)[C@H](CC(N)=O)NC1=O)NC(=O)[C@H](CC(C)(C)C)NC(=O)[C@H](CC(=O)O)NC2=O (stereo partly drawn) [I-2197] .
Output: 2450

###

Hi there, I'd appreciate the recorded Solubility for every entry that follows.
- Method summary: Solubility in PBS
- Format: physicochemical
Give the quantity in µM, number only.

Task: Recall and state the measured Solubility for CC(=O)N1CCC[C@]12CC=CCCCC1(CCCC=CCCCOC(=O)N3CC[C@@](C(=O)N[C@@H](Cc4ccccc4)C(=O)N[C@@H](Cc4csc5ccccc45)C(=O)N[C@@H](CCC(N)=O)C(N)=O)(C3)NC(=O)[C@H](CC(C)C)NC(=O)[C@H](Cc3ccccc3)NC(=O)[C@H](C)NC(=O)[C@H](C)NC(=O)[C@H]([C@@H](C)O)NC(=O)[C@H](CC(N)=O)NC1=O)NC(=O)[C@H](CC(C)(C)C)NC(=O)[C@H](CC(=O)O)NC2=O (stereo partly drawn) .
Output: 10

Task: Recall and state the measured Solubility for COCCOCCC(=O)N1CCC[C@]12CC=CCCCC1(CCCC=CCCCCCC[C@@](C)(C(=O)N[C@@H](Cc3ccccc3Cl)C(=O)N[C@@H](Cc3csc4ccccc34)C(=O)N[C@@H](CCC(N)=O)C(N)=O)NC(=O)[C@H]([C@@H](C)O)NC(=O)[C@H](Cc3ccccc3)NC(=O)[C@H](C)NC(=O)[C@H](C)NC(=O)[C@H](CC(=O)O)NC(=O)[C@H](CC(=O)O)NC1=O)NC(=O)[C@H](CC(C)(C)C)NC(=O)[C@H](CC(=O)O)NC2=O (stereo partly drawn) .
Output: 50

Task: Recall and state the measured Solubility for CC(=O)N1CCC[C@]12CC=CCCCC1(CCCC=CCCCOC(=O)N3CC[C@@](C(=O)N[C@@H](Cc4ccccc4)C(=O)N[C@@H](Cc4csc5ccccc45)C(=O)N[C@@H](CCC(N)=O)C(N)=O)(C3)NC(=O)[C@H](CC(C)C)NC(=O)[C@H](Cc3ccccc3)NC(=O)[C@H](C)NC(=O)[C@H](C)NC(=O)[C@H](CCC(=O)O)NC(=O)[C@H](CC(=O)O)NC1=O)NC(=O)[C@H](CC(C)(C)C)NC(=O)[C@H](CC(=O)O)NC2=O (stereo partly drawn) [I-1074] .
Output: 34

###

Hi there, I'd appreciate the recorded chromatographic logD for every entry that follows.
- Method summary: CHI Log D procedure
- Format: physicochemical
- Measurement parameters: pH 7.4, CHI Log D
Lab note: write the figure by itself, no unit.

Task: Recall and state the measured chromatographic logD for CC(=O)N1CCC[C@]12CC=CCCCC1(CCCC=CCCCCCC[C@@](C)(C(=O)N[C@@H](Cc3ccccc3)C(=O)N[C@@H](Cc3c[nH]c4ccccc34)C(=O)N[C@@H](CCC(N)=O)C(N)=O)NC(=O)[C@H](C(C)C)NC(=O)[C@H](Cc3ccccc3)NC(=O)[C@H](C)NC(=O)[C@H](C)NC(=O)[C@H](Cc3ccc(F)c(F)c3)NC(=O)[C@H](CC(=O)O)NC1=O)NC(=O)[C@H](C)NC(=O)[C@H](CC(=O)O)NC2=O (stereo partly drawn) .
Output: 2.9

Task: Recall and state the measured chromatographic logD for CC(=O)N1CCC[C@]12CC=CCCCC1(CCCC=CCCCCCC[C@@](C)(C(=O)N[C@@H](Cc3ccccc3)C(=O)N[C@@H](Cc3csc4ccccc34)C(=O)N[C@H](CO)C(N)=O)NC(=O)[C@H](CC(N)=O)NC(=O)[C@H](Cc3ccccc3)NC(=O)[C@H](C)NC(=O)[C@H](C)NC(=O)[C@H](CCC(=O)O)NC(=O)[C@H](CC(=O)O)NC1=O)NC(=O)[C@H](CC(C)C)NC(=O)[C@H](CC(=O)O)NC2=O (stereo partly drawn) .
Output: 2.61

Task: Recall and state the measured chromatographic logD for CC(=O)N1CCC[C@]12CC=CCCCC1(CCCC=CCCCOC(=O)N3CC[C@@](C(=O)N[C@@H](Cc4ccccc4Cl)C(=O)N[C@@H](Cc4csc5ccccc45)C(=O)N[C@@H](CO)C(N)=O)(C3)NC(=O)[C@H]([C@@H](C)O)NC(=O)[C@H](Cc3ccccc3)NC(=O)[C@H](C)NC(=O)[C@H](C)NC(=O)[C@H](CC(=O)O)NC(=O)[C@H](CC(=O)O)NC1=O)NC(=O)[C@H](CC1CCCCC1)NC(=O)[C@H](CC(=O)O)NC2=O (stereo partly drawn) .
Output: 2.52

###

- System tested: full-length beta-Catenin (Uniprot ID P35222) (Homo sapiens)
- Construct: 10 nM full-length beta-Catenin (Uniprot ID P35222)
- Method summary: Fluorescence polarization IC50 (beta-catenin / 5FAM-TCF4 10-53 competition)
- Assay type: binding
- Measurement parameters: fluorescence polarization; read-out: beta-Catenin FP IC50
Hi there, I'd appreciate the recorded pIC50 for every entry that follows.
Scale note: pIC50 = -log10(concentration in M).

Task: Fill in: pIC50 on full-length beta-Catenin (Uniprot ID P35222) (Homo sapiens), entry CC(=O)N1CCC[C@]12CC=CCCCC1(CCCC=CCCCOC(=O)N3CC[C@@](C(=O)N[C@@H](Cc4ccsc4)C(=O)N[C@@H](Cc4csc5ccccc45)C(=O)N[C@@H](CCC(N)=O)C(N)=O)(C3)NC(=O)[C@H](CC(N)=O)NC(=O)[C@H](Cc3cccc(C(F)(F)F)c3)NC(=O)[C@H](C)NC(=O)[C@H](C)NC(=O)[C@H]([C@@H](C)O)NC(=O)[C@H](CC(N)=O)NC1=O)NC(=O)[C@H](CC(C)(C)C)NC(=O)[C@H](CC(=O)O)NC2=O (some centres unmarked) [I-2009]
Output: 5.83

Task: Fill in: pIC50 on full-length beta-Catenin (Uniprot ID P35222) (Homo sapiens), entry CC(=O)N1CCC[C@]12CC=CCCCC1(CCCC=CCCCOC(=O)N3CC[C@@](C(=O)N[C@@H](Cc4ccsc4)C(=O)N[C@@H](Cc4csc5ccccc45)C(=O)N[C@@H](Cc4c[nH]cn4)C(N)=O)(C3)NC(=O)[C@H](CC(N)=O)NC(=O)[C@H](Cc3ccccc3)NC(=O)[C@H](C)NC(=O)[C@H](C)NC(=O)[C@H]([C@@H](C)O)NC(=O)[C@H](CC(N)=O)NC1=O)NC(=O)[C@H](CC(C)(C)C)NC(=O)[C@H](CC(=O)O)NC2=O (some centres unmarked) [I-2141]
Output: 6.51

Task: Fill in: pIC50 on full-length beta-Catenin (Uniprot ID P35222) (Homo sapiens), entry CC(=O)N1CCC[C@]12CC=CCCCC1(CCCC=CCCCOC(=O)N3CC[C@@](C(=O)N[C@@H](Cc4ccsc4)C(=O)N[C@@H](Cc4csc5ccccc45)C(=O)N[C@@H](CCC(N)=O)C(N)=O)(C3)NC(=O)[C@H](CC(N)=O)NC(=O)[C@H](Cc3ccccc3)NC(=O)[C@H](C)NC(=O)[C@H](C)NC(=O)[C@H](CN(CC(=O)O)Cc3ccccc3)NC(=O)[C@H](CC(=O)O)NC1=O)NC(=O)[C@H](CC(C)(C)C)NC(=O)[C@H](CC(=O)O)NC2=O (some centres unmarked) [I-1635]
Output: 8.15

Task: Fill in: pIC50 on full-length beta-Catenin (Uniprot ID P35222) (Homo sapiens), entry CC(=O)N1CCC[C@]12CC=CCCCC1(CCCC=CCCCOC(=O)N3CC[C@@](C(=O)N[C@@H](Cc4ccsc4)C(=O)N[C@@H](Cc4csc5ccccc45)C(=O)N[C@@H](CCC(N)=O)C(N)=O)(C3)NC(=O)[C@H](CC(C)C)NC(=O)[C@H](Cc3ccccc3)NC(=O)[C@H](C)NC(=O)[C@H](C)NC(=O)[C@H](CCN(CC(=O)O)C(=O)CCN(C)C)NC(=O)[C@H](CC(=O)O)NC1=O)NC(=O)[C@H](CC(C)(C)C)NC(=O)[C@H](CC(=O)O)NC2=O (some centres unmarked) [I-2244]
Output: 7.80

Task: Fill in: pIC50 on full-length beta-Catenin (Uniprot ID P35222) (Homo sapiens), entry CC(=O)N1CCC[C@]12CC=CCCCC1(CCCC=CCCCOC(=O)N3CC[C@@](C(=O)N[C@@H](Cc4ccsc4)C(=O)N[C@@H](Cc4ccc5ccccc5c4)C(=O)N[C@@H](CO)C(N)=O)(C3)NC(=O)[C@H](CC(C)C)NC(=O)[C@H](Cc3ccccc3)NC(=O)[C@H](C)NC(=O)[C@H](C)NC(=O)[C@H](CC(=O)O)NC(=O)[C@H](CC(=O)O)NC1=O)NC(=O)[C@H](CC(C)(C)C)NC(=O)[C@H](CC(=O)O)NC2=O (some centres unmarked) [I-1239]
Output: 7.48

The measured values listed here are drawn from patent US20240116985A1.
